test system: barnyardgrass; experiment: Test C postemergence; format: in vivo, Echinochloa crus-galli; conditions: 62 g ai/ha
Source text: […]
Outcome label depends on Plant response rating (scale of 0 to 100 where 0 is no effect and 100 is complete control) relative to 20: at/above gives Condition met, below gives Condition not met.

>  <compound>
CCc1nc(-c2ccc(C(F)(F)F)cc2)nn1Cc1ccnc(C(F)(F)F)c1 [Compound 1]

>  <assayed_system>
barnyardgrass

>  <assigned_label>
Condition not met

$$$$
>  <compound>
COc1nc(-c2ccc(C(F)(F)F)cc2)nn1Cc1ccnc(C(F)(F)F)c1 [Compound 25]

>  <assayed_system>
barnyardgrass

>  <assigned_label>
Condition met

$$$$
>  <compound>
CCOc1nc(-c2ccc(Cl)cc2)nn1Cc1ccnc(C(F)(F)F)c1 [Compound 26]

>  <assayed_system>
barnyardgrass

>  <assigned_label>
Condition met

$$$$
>  <compound>
FC(F)(F)COc1nc(-c2ccccc2)nn1Cc1ccnc(C(F)(F)F)c1 [Compound 24]

>  <assayed_system>
barnyardgrass

>  <assigned_label>
Condition met

$$$$
>  <compound>
COc1nc(-c2ccccc2)nn1Cc1ccnc(C(F)(F)F)c1 [Compound 32]

>  <assayed_system>
barnyardgrass

>  <assigned_label>
Condition not met

$$$$
>  <compound>
CCOc1nc(-c2ccccc2)nn1Cc1ccnc(C(F)(F)F)c1 [Compound 27]

>  <assayed_system>
barnyardgrass

>  <assigned_label>
Condition not met

$$$$
